Reference source: patent US5081131A

Target Desc: thromboxane synthetase enzyme (Rattus norvegicus, UniProt P49430)
Construct: endogenous in cells; host or cells: washed platelets from arterial blood of male Okamoto-Aoki spontaneously hypertensive rats (animals from Taconic Farms, Germantown, N.Y.)
Sequence (P49430 whole entry): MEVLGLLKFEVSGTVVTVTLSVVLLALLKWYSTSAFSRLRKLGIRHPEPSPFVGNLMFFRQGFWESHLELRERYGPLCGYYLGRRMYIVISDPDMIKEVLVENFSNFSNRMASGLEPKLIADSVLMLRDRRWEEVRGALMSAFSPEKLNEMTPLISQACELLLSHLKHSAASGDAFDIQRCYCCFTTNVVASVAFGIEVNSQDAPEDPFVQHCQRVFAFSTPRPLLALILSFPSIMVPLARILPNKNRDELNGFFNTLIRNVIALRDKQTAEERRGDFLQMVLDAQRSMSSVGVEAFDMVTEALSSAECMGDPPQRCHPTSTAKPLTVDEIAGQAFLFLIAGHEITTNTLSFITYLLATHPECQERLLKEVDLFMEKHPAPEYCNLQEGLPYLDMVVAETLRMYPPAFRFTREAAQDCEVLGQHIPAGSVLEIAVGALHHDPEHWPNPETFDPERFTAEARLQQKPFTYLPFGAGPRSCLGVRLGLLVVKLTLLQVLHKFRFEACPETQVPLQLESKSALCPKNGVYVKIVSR
Protocol: Thromboxane synthetase enzyme inhibition (TXB2 formation in washed platelets, RIA)
Type: cell-based, spontaneously hypertensive rat
Condition Context: 1×10^-4 Molar; SHR platelets, 10 min at 37° C.
Observation Type: % Inhibition (Thromboxane Synthetase Enzyme Inhibition) (%)
Quick note: give the figure in %, leave out the unit.

For orientation, consider the following solved cases.
>  <Compound>
c1cc2c3c(cccc3c1)C(NCCCCn1ccnc1)=N2 [N-(4-(1H-imidazol-1-yl)butyl)benz(cd)indol-2-amine, hydriodi]

>  <Target Desc>
thromboxane synthetase enzyme (Rattus norvegicus, UniProt P49430)

>  <Output Unit>
%

>  <Numeric Value>
100

$$$$
>  <Compound>
CC(CCCNC1=Nc2cccc3cccc1c23)n1ccnc1.O=C(O)/C=C/C(=O)O.O=C(O)/C=C/C(=O)O (stereo not shown)

>  <Target Desc>
thromboxane synthetase enzyme (Rattus norvegicus, UniProt P49430)

>  <Output Unit>
%

>  <Numeric Value>
99

$$$$
>  <Compound>
Cl.Cl.c1cc2c3c(cccc3c1)C(NCCCn1ccnc1)=N2

>  <Target Desc>
thromboxane synthetase enzyme (Rattus norvegicus, UniProt P49430)

>  <Output Unit>
%

>  <Numeric Value>
85

$$$$

## Task I am curious: what % Inhibition (Thromboxane Synthetase Enzyme Inhibition) value has been reported for CC(CNC1=Nc2cccc3cccc1c23)Cn1ccnc1.O=C(O)/C=C/C(=O)O (stereo not shown) ?
## Result 100

## Task I am curious: what % Inhibition (Thromboxane Synthetase Enzyme Inhibition) value has been reported for `Brc1ccc2c3c(cccc13)C(NCCCCc1cccnc1)=N2.Cl.Cl` ?
## Result 89
